This collection of values is drawn from patent US20080112961A1.

target: T1, FcγRIIIA (form not stated) (UniProt P08637 17-208, limits assumed); assay: ELISA
T1 construct: also called FcγRIIIA (ELISA)
T1 sequence (P08637 17-208 F176V limits assumed, form in doubt): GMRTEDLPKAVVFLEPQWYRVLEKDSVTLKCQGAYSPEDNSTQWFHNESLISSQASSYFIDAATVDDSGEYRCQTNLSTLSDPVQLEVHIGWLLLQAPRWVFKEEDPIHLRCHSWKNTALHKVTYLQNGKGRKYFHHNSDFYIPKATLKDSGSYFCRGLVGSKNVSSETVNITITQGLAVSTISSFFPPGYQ
# reported fold increase vs WT; entries follow
Numbers only here, please. The scale is x.

binder: ch4-4-20 F243L, V305I, A378D, F404S, P396L (antibody, also called MgFc54) heavy: ASTKGPSVFPLAPSSKSTSGGTAALGCLVKDYFPEPVTVSWNSGALTSGVHTFPAVLQSSGLYSLSSVVTVPSSSLGTQTYICNVNHKPSNTKVDKKVEPKSCDKTHTCPPCPAPELLGGPSVFLLPPKPKDTLMISRTPEVTCVVVDVSHEDPEVKFNWYVDGVEVHNAKTKPREEQYNSTYRVVSILTVLHQDWLNGKEYKCKVSNKALPAPIEKTISKAKGQPREPQVYTLPPSRDELTKNQVSLTCLVKGFYPSDIDVEWESNGQPENNYKTTPLVLDSDGSSFLYSKLTVDKSRWQQGNVFSCSVMHEALHNHYTQKSLSLSPGK
unit_tag: x
fold increase vs WT: 1.6

Form field: reported fold increase vs WT of ch4-4-20 F275L, Q362H, N384K, P396L (antibody) heavy: ASTKGPSVFPLAPSSKSTSGGTAALGCLVKDYFPEPVTVSWNSGALTSGVHTFPAVLQSSGLYSLSSVVTVPSSSLGTQTYICNVNHKPSNTKVDKKVEPKSCDKTHTCPPCPAPELLGGPSVFLFPPKPKDTLMISRTPEVTCVVVDVSHEDPEVKLNWYVDGVEVHNAKTKPREEQYNSTYRVVSVLTVLHQDWLNGKEYKCKVSNKALPAPIEKTISKAKGQPREPQVYTLPPSRDELTKNHVSLTCLVKGFYPSDIAVEWESKGQPENNYKTTPLVLDSDGSFFLYSKLTVDKSRWQQGNVFSCSVMHEALHNHYTQKSLSLSPGK 2.2

Look up fold increase vs WT: ch4-4-20 G316D, A378V, D399E (antibody) heavy: ASTKGPSVFPLAPSSKSTSGGTAALGCLVKDYFPEPVTVSWNSGALTSGVHTFPAVLQSSGLYSLSSVVTVPSSSLGTQTYICNVNHKPSNTKVDKKVEPKSCDKTHTCPPCPAPELLGGPSVFLFPPKPKDTLMISRTPEVTCVVVDVSHEDPEVKFNWYVDGVEVHNAKTKPREEQYNSTYRVVSVLTVLHQDWLNDKEYKCKVSNKALPAPIEKTISKAKGQPREPQVYTLPPSRDELTKNQVSLTCLVKGFYPSDIVVEWESNGQPENNYKTTPPVLESDGSFFLYSKLTVDKSRWQQGNVFSCSVMHEALHNHYTQKSLSLSPGK 1.5

# fold increase vs WT lookup, item ch4-4-20 V397M, T411A, S415N (antibody) heavy: ASTKGPSVFPLAPSSKSTSGGTAALGCLVKDYFPEPVTVSWNSGALTSGVHTFPAVLQSSGLYSLSSVVTVPSSSLGTQTYICNVNHKPSNTKVDKKVEPKSCDKTHTCPPCPAPELLGGPSVFLFPPKPKDTLMISRTPEVTCVVVDVSHEDPEVKFNWYVDGVEVHNAKTKPREEQYNSTYRVVSVLTVLHQDWLNGKEYKCKVSNKALPAPIEKTISKAKGQPREPQVYTLPPSRDELTKNQVSLTCLVKGFYPSDIAVEWESNGQPENNYKTTPPMLDSDGSFFLYSKLAVDKNRWQQGNVFSCSVMHEALHNHYTQKSLSLSPGK 0.25

Sample ch4-4-20 P244H, L358M, V379M, N384K, V397M (antibody) heavy: ASTKGPSVFPLAPSSKSTSGGTAALGCLVKDYFPEPVTVSWNSGALTSGVHTFPAVLQSSGLYSLSSVVTVPSSSLGTQTYICNVNHKPSNTKVDKKVEPKSCDKTHTCPPCPAPELLGGPSVFLFHPKPKDTLMISRTPEVTCVVVDVSHEDPEVKFNWYVDGVEVHNAKTKPREEQYNSTYRVVSVLTVLHQDWLNGKEYKCKVSNKALPAPIEKTISKAKGQPREPQVYTLPPSRDEMTKNQVSLTCLVKGFYPSDIAMEWESKGQPENNYKTTPPMLDSDGSFFLYSKLTVDKSRWQQGNVFSCSVMHEALHNHYTQKSLSLSPGK — what was its fold increase vs WT? 1.75

// lookup fold increase vs WT for ch4-4-20 P247L, W313R, E388G (antibody) heavy: ASTKGPSVFPLAPSSKSTSGGTAALGCLVKDYFPEPVTVSWNSGALTSGVHTFPAVLQSSGLYSLSSVVTVPSSSLGTQTYICNVNHKPSNTKVDKKVEPKSCDKTHTCPPCPAPELLGGPSVFLFPPKLKDTLMISRTPEVTCVVVDVSHEDPEVKFNWYVDGVEVHNAKTKPREEQYNSTYRVVSVLTVLHQDRLNGKEYKCKVSNKALPAPIEKTISKAKGQPREPQVYTLPPSRDELTKNQVSLTCLVKGFYPSDIAVEWESNGQPGNNYKTTPPVLDSDGSFFLYSKLTVDKSRWQQGNVFSCSVMHEALHNHYTQKSLSLSPGK 1.5

Entry under review: ch4-4-20 T335N, K370E, A378V, T394M, S424L (antibody) heavy: ASTKGPSVFPLAPSSKSTSGGTAALGCLVKDYFPEPVTVSWNSGALTSGVHTFPAVLQSSGLYSLSSVVTVPSSSLGTQTYICNVNHKPSNTKVDKKVEPKSCDKTHTCPPCPAPELLGGPSVFLFPPKPKDTLMISRTPEVTCVVVDVSHEDPEVKFNWYVDGVEVHNAKTKPREEQYNSTYRVVSVLTVLHQDWLNGKEYKCKVSNKALPAPIEKNISKAKGQPREPQVYTLPPSRDELTKNQVSLTCLVEGFYPSDIVVEWESNGQPENNYKTMPPVLDSDGSFFLYSKLTVDKSRWQQGNVFLCSVMHEALHNHYTQKSLSLSPGK . Reported fold increase vs WT? 0.5

Sample ch4-4-20 K222N, T335N, K370E, A378V, T394M (antibody) heavy: ASTKGPSVFPLAPSSKSTSGGTAALGCLVKDYFPEPVTVSWNSGALTSGVHTFPAVLQSSGLYSLSSVVTVPSSSLGTQTYICNVNHKPSNTKVDKKVEPKSCDNTHTCPPCPAPELLGGPSVFLFPPKPKDTLMISRTPEVTCVVVDVSHEDPEVKFNWYVDGVEVHNAKTKPREEQYNSTYRVVSVLTVLHQDWLNGKEYKCKVSNKALPAPIEKNISKAKGQPREPQVYTLPPSRDELTKNQVSLTCLVEGFYPSDIVVEWESNGQPENNYKTMPPVLDSDGSFFLYSKLTVDKSRWQQGNVFSCSVMHEALHNHYTQKSLSLSPGK — what was its fold increase vs WT? 1
